- EXPERIMENT_SUMMARY: Phase I clinical trial pharmacokinetics
- CONDITION_SUMMARY: male, human, in vivo, po, 140 mg, Mean Day 15 AUC0-24, 140 mg oral, once daily; imputed 24 hours values
MEASUREMENT_NAME: AUC(0-t) (ng·h/mL)
# output: bare number, implied unit ng·h/mL

Ask | Name the recorded AUC(0-t) for N#Cc1ccc(O[C@H]2CC[C@H](NC(=O)c3ccc(N4CCC(CN5CCN(c6cc7c(cc6F)C(=O)N(C6CCC(=O)NC6=O)C7=O)CC5)CC4)nn3)CC2)cc1Cl (stereo partly shown) .
Reply | 5020

====

- EXPERIMENT_SUMMARY: Phase I clinical trial pharmacokinetics
- CONDITION_SUMMARY: male, human, in vivo, po, 35 mg, Mean Day 15 AUC0-24, 35 mg oral, once daily; imputed 24 hours values
- From the text: A traditional 3+3 dose escalation design was implemented. […] Dose increases were dependent upon toxicities.
MEASUREMENT_NAME: AUC(0-t) (ng·h/mL)
# output: bare number, implied unit ng·h/mL

Ask | Name the recorded AUC(0-t) for N#Cc1ccc(O[C@H]2CC[C@H](NC(=O)c3ccc(N4CCC(CN5CCN(c6cc7c(cc6F)C(=O)N(C6CCC(=O)NC6=O)C7=O)CC5)CC4)nn3)CC2)cc1Cl (stereo partly shown) .
Reply | 1700
